- experimental protocol: in vivo
- experimental setup: dog, im, 25 mg/kg
attribute measured: concentration at 0.5 h
Record the result as a number with its unit.

query: # input compound: "CC1(C)S[C@@H]2[C@H](NC(=O)[C@H](NC(=O)NC(=N)N)c3ccccc3)C(=O)N2[C@H]1C(=O)O" ; wanted: its concentration at 0.5 h
result: 3500 ng/mL

----------
- experimental protocol: Serum levels in dogs, single intramuscular dose
- experimental setup: dog, serum, im, 0.05 mg/kg
attribute measured: concentration at 1 h (µg/mL)
Provide only the numeric value, understood in µg/mL.

query: Report concentration at 1 h for "CC1(C)S[C@@H]2[C@H](NC(=O)[C@H](NC(=O)CNC(=N)N)c3ccccc3)C(=O)N2[C@H]1C(=O)O" please.
result: 78
